assay: Aqueous solubility; type: physicochemical; details: crystalline form
MEASURED_METRIC: solubility (µg/mL)
# number only, unit µg/mL dropped from output

**Q:** Return solubility for the following compound: CNC(=O)c1ccc(N2C(=S)N(c3ccc(C#N)c(C(F)(F)F)c3)C(=O)C2(C)C)cc1F [Enzalutamide]
**A:** 2.9
